# measurement-target: glucocorticoid receptor (Homo sapiens (Human))
# test-details: HepG2 TAT assay: inhibition of dexamethasone-induced tyrosine aminotransferase (TAT) activity
# experimental-conditions: HepG2 cells, challenge of 100 nM dexamethasone, 18-24 hr; IC50 converted to Ki by Cheng and Prusoff equation
pKi overview
// scale note: pKi = -log10(conc_M); give the bare number

INSERT INTO results (molecule, observed_result) VALUES
  ('Cc1cc2c(cnn2-c2ccc(F)cc2)cc1C12CC(OCc3ccccc3)CC1CN(C(=O)OC(C)(C)C)C2 (stereo not drawn)', 6.80),
  ('CC(=O)N1C[C@H]2[C@H](C(=O)Nc3ccc(F)cn3)[C@@]2(c2cc3cnn(-c4ccc(F)cc4)c3cc2C)C1 (stereo in doubt)', 7.05);

Query molecule follows.
Q: Given the molecule `Cc1cc2c(cnn2-c2ccc(F)cc2)cc1[C@]12CN(S(=O)(=O)C3CCOCC3)C[C@H]1[C@@H]2c1ccccc1` , what is its reported pKi?
Ans: 7.33

* * *

# measurement-target: glucocorticoid receptor (Homo sapiens (Human))
# test-details: HepG2 TAT assay: inhibition of dexamethasone-induced tyrosine aminotransferase (TAT) activity
# experimental-conditions: HepG2 cells, challenge of 100 nM dexamethasone, 18-24 hr; IC50 converted to Ki by Cheng and Prusoff equation
measured-parameter: pKi
// scale note: pKi = -log10(conc_M); give the bare number

Some solved cases for reference:
INSERT INTO results (molecule, measurement_target, observed_result) VALUES
  ('Cc1cc2c(cnn2-c2ccc(F)cc2)cc1[C@@]12CN(C(=O)c3ccc(C4CC4)cn3)C[C@@H]1[C@H]2c1ccccc1 (single isomer, unassigned)', 'glucocorticoid receptor (Homo sapiens (Human))', 7.68),
  ('Cc1cc2c(cnn2-c2ccc(F)cc2)cc1[C@]12CN(S(=O)(=O)c3cnn(C)n3)C[C@H]1[C@@H]2c1ccccc1', 'glucocorticoid receptor (Homo sapiens (Human))', 6.80),
  ('Cc1cc2c(cnn2-c2ccc(F)cc2)cc1[C@]12CN(S(=O)(=O)c3cnn(C)c3)C[C@H]1[C@@H]2c1ccccc1', 'glucocorticoid receptor (Homo sapiens (Human))', 7.44),
  ('Cc1cc2c(cnn2-c2ccc(F)cc2)cc1[C@@]12CN(S(=O)(=O)N(C)C)C[C@@H]1[C@H]2c1ccccc1', 'glucocorticoid receptor (Homo sapiens (Human))', 7.80),
  ('Cc1cc2c(cnn2-c2ccc(F)cc2)cc1[C@@]12CN(C(=O)c3cc(C(F)(F)F)ccn3)C[C@@H]1[C@H]2c1ccccc1 (single isomer, unassigned)', 'glucocorticoid receptor (Homo sapiens (Human))', 7.74);

Query molecule follows.
Q: Given the molecule `COCCS(=O)(=O)N1C[C@@H]2[C@@H](c3ccccc3)[C@]2(c2cc3cnn(-c4ccc(F)cc4)c3cc2C)C1` , what is its reported pKi?
Ans: 7.49

* * *

log10 Ki overview
# measurement-target: glucocorticoid receptor (Homo sapiens (Human), UniProt P04150)
# Sequence (P04150 whole entry): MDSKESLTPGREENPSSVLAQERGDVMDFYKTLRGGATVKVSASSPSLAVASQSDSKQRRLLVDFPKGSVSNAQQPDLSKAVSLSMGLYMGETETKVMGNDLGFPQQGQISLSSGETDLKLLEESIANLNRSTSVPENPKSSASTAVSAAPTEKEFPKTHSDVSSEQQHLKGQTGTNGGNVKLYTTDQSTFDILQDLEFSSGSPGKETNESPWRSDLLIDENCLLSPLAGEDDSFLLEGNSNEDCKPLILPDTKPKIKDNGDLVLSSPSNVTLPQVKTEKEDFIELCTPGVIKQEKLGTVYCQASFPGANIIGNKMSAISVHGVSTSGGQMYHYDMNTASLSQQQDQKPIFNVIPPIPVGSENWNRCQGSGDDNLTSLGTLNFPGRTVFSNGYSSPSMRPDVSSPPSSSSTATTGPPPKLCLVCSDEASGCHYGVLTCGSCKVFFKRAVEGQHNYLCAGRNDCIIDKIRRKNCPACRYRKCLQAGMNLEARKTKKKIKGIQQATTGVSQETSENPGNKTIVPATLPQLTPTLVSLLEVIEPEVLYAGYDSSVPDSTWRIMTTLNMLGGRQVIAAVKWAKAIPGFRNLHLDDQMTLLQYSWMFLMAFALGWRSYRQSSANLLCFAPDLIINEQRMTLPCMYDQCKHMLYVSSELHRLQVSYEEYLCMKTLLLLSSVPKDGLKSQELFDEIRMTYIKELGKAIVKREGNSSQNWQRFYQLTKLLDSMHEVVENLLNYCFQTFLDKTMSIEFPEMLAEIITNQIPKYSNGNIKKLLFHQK
# test-details: HepG2 TAT assay: inhibition of dexamethasone-induced tyrosine aminotransferase (TAT) activity
# experimental-conditions: HepG2 cells, challenge of 100 nM dexamethasone, 18-24 hr; IC50 converted to Ki by Cheng and Prusoff equation
Field: value | Transform: log10 | Quantity: Ki | Unit: nM

Q: Given the compound CCn1ncc(S(=O)(=O)N2CC3CC(OC)(c4ccccc4)CC3(c3cc4cnn(-c5ccc(F)cc5)c4cc3C)C2)n1 (stereo not drawn) , what is its reported log10 Ki?
Ans: 1.72

Q: Note, next up: Cc1cc2c(cnn2-c2ccc(F)cc2)cc1[C@@]12CN(C(=O)c3ccccc3)C[C@@H]1[C@H]2Cc1ccccc1 (stereo in doubt)
Ans: 2.93

Q: Note, next up: `CCn1ncc(S(=O)(=O)N2C[C@H]3[C@H](c4ccccc4)[C@@]3(c3cc4cnn(-c5ccc(F)cc5)c4cc3C)C2)n1`
Ans: 1.18

Q: Note, next up: Cc1cc2c(cnn2-c2ccc(F)cc2)cc1[C@@]12CN(S(=O)(=O)c3cnn(C)n3)C[C@@H]1[C@H]2C(=O)N1CCCC1 (stereo in doubt)
Ans: 2.48

Q: Note, next up: Cc1cc2c(cnn2-c2ccc(F)cc2)cc1[C@]12CN(S(=O)(=O)c3cnn(C)n3)C[C@H]1[C@@H]2C(=O)Nc1ccc(F)cn1 (stereo in doubt)
Ans: 1.52

Q: Note, next up: COC1(c2ccccc2)CC2CN(S(=O)(=O)C(C)C)CC2(c2cc3cnn(-c4ccc(F)cc4)c3cc2C)C1 (stereo not drawn)
Ans: 1.51

* * *

# measurement-target: glucocorticoid receptor (Homo sapiens (Human), UniProt P04150)
# test-details: HepG2 TAT assay: inhibition of dexamethasone-induced tyrosine aminotransferase (TAT) activity
# experimental-conditions: HepG2 cells, challenge of 100 nM dexamethasone, 18-24 hr; IC50 converted to Ki by Cheng and Prusoff equation
measured-parameter: pKi
// scale note: pKi = -log10(conc_M); give the bare number

Some solved cases for reference:
INSERT INTO assay_data (compound, measured_parameter, observed_result) VALUES
  ('Cc1cc2c(cnn2-c2ccc(F)cc2)cc1C12CC(c3ccccc3)CC1CN(S(C)(=O)=O)C2 (stereo not drawn) [Example 46]', 'pKi', 7.06),
  ('Cc1cc2c(cnn2-c2ccc(F)cc2)cc1C12CC(=O)CC1CN(C(=O)OC(C)(C)C)C2 (stereo not drawn) [Example 1]', 'pKi', 6.43),
  ('Cc1cc2c(cnn2-c2ccc(F)cc2)cc1[C@@]12CN(S(=O)(=O)N3CCCC3)C[C@@H]1[C@H]2c1ccccc1 (single isomer, unassigned) [Example 99]', 'pKi', 7.55);

Q: Given the compound Cc1cc2c(cnn2-c2ccc(F)cc2)cc1[C@@]12CN(C(=O)c3cc(C#N)ccn3)C[C@@H]1[C@H]2c1ccccc1 (single isomer, unassigned) [Example 149] , what is its reported pKi?
Ans: 7.89

Q: Note, next up: Cc1cc2c(cnn2-c2ccc(F)cc2)cc1[C@@]12CN(C(=O)c3ncc(F)cc3F)C[C@@H]1[C@H]2c1ccccc1 (stereo in doubt) [Example 157]
Ans: 7.74

Q: Note, next up: Cc1cc2c(cnn2-c2ccc(F)cc2)cc1[C@@]12CN(C(=O)c3ccccn3)C[C@@H]1[C@H]2c1ccccc1 (stereo in doubt) [Example 116]
Ans: 7.51

* * *

pKi overview
# measurement-target: glucocorticoid receptor (Homo sapiens (Human), UniProt P04150)
# test-details: HepG2 TAT assay: inhibition of dexamethasone-induced tyrosine aminotransferase (TAT) activity
# experimental-conditions: HepG2 cells, challenge of 100 nM dexamethasone, 18-24 hr; IC50 converted to Ki by Cheng and Prusoff equation
// scale note: pKi = -log10(conc_M); give the bare number

INSERT INTO measurements (compound, measured_parameter, observed_result) VALUES
  ('COCC(=O)N1C[C@@H]2[C@@H](c3ccccc3)[C@]2(c2cc3cnn(-c4ccc(F)cc4)c3cc2C)C1 (single isomer, unassigned)', 'pKi', 7.32),
  ('Cc1cc2c(cnn2-c2ccc(F)cc2)cc1[C@@]12CN(S(=O)(=O)CC3CCOCC3)C[C@@H]1[C@H]2c1ccccc1', 'pKi', 7.49),
  ('Cc1cc2c(cnn2-c2ccc(F)cc2)cc1[C@@]12CN(S(=O)(=O)C(C)C)C[C@@H]1[C@H]2c1ccccc1', 'pKi', 7.39),
  ('Cc1cc2c(cnn2-c2ccc(F)cc2)cc1[C@@]12CN(S(=O)(=O)c3cnn(C)n3)C[C@@H]1[C@H]2C(=O)Nc1ccc(F)cn1 (stereo in doubt)', 'pKi', 7.42),
  ('CCNC(=O)[C@@H]1[C@H]2CN(S(=O)(=O)c3cnn(C)n3)C[C@]21c1cc2cnn(-c3ccc(F)cc3)c2cc1C', 'pKi', 6.37);

Query compound follows.
Q: Given the compound `Cc1cc2c(cnn2-c2ccc(F)cc2)cc1[C@@]12CN(S(=O)(=O)N3CCC3)C[C@@H]1[C@H]2c1ccccc1` , what is its reported pKi?
Ans: 7.85

* * *

# measurement-target: glucocorticoid receptor (Homo sapiens (Human), UniProt P04150)
# test-details: HepG2 TAT assay: inhibition of dexamethasone-induced tyrosine aminotransferase (TAT) activity
# Assay type: cell-based
# experimental-conditions: HepG2 cells, challenge of 100 nM dexamethasone, 18-24 hr; IC50 converted to Ki by Cheng and Prusoff equation
measured-parameter: pKi
// scale note: pKi = -log10(conc_M); give the bare number

Some solved cases for reference:
INSERT INTO assay_data (compound, observed_result) VALUES
  ('CCS(=O)(=O)N1C[C@@H]2[C@@H](c3ccccc3)[C@]2(c2cc3cnn(-c4ccc(F)cc4)c3cc2C)C1 [Example 94]', 7.51),
  ('Cc1cc2c(cnn2-c2ccc(F)cc2)cc1[C@@]12CN(C(=O)c3cccc(C(C)C)n3)C[C@@H]1[C@H]2c1ccccc1 (stereo in doubt) [Example 166]', 7.33),
  ('Cc1cc2c(cnn2-c2ccc(F)cc2)cc1C12CC(Oc3ccccc3)CC1CN(S(=O)(=O)c1cnn(C)c1)C2 (stereo not shown) [Example 44]', 6.43);

Q: Given the compound Cc1noc([C@@H]2[C@H]3CN(S(=O)(=O)c4cnn(C)n4)C[C@]32c2cc3cnn(-c4ccc(F)cc4)c3cc2C)n1 (stereo in doubt) [Example 131] , what is its reported pKi?
Ans: 6.62
